- Target or system: Dihydrofolate reductase (Homo sapiens, UniProt P00374)
- Sequence (P00374 whole entry): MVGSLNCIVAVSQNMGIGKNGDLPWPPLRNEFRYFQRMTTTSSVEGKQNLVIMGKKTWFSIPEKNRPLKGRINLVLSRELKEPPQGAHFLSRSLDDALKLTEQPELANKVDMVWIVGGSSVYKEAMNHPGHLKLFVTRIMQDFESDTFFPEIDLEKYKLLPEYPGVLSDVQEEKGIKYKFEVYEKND
pIC50: −log10 of the molar value.
Property label: pIC50

>>> print(df.to_string())
                                   compound  property_label  value_reported
0  Nc1nc(N)c2c(n1)CCC(CCc1ccc(C(=O)N[C@@H](CCC(=O)O)C(=O)O)cc1)N2 (stereo partly specified)           pIC50            7.40
